- Test system: UACC-62
- assay-comment: NCI tumour cell line growth inhibition, 48 h
The source made the active and inactive calls. No stated cut-off is given here; in the data, active = GI50 up to about 1.1 µM and inactive = higher. Square brackets hold non-standard residues; d marks the D form. Peptide text beside a SMILES is read from it. * marks the point of attachment. ξ: configuration not given here. Propanoyl(3-(4-MeO-Ph)) = COc1ccc(CCC(=O)*)cc1; Thr(3ξ) = CC(O)[C@H](N)C(=O)O; dNMeL = CN[C@H](CC(C)C)C(=O)O; ξLac = CC(O)C(=O)O
Labels: true (active), false (inactive)

{"compound": "N#Cc1c(N2CCCC2)ncn(Cc2ccccc2)c1=O", "cat": "false"}
{"compound": "COc1ccc(C2N(c3ccc(F)c([N+](=O)[O-])c3)C(=O)N3C(c4ccc(OC)cc4)N(c4ccc(F)c([N+](=O)[O-])c4)C(=O)N23)cc1 (centres undefined)", "cat": "false"}
{"compound": "O=C1[C@@H]2Cc3c([nH]c4ccccc34)C(C3CCCCC3)N2C(=O)[C@@H]2CCCN12 (some centres undefined)", "cat": "false"}
{"compound": "O=C1/C(=C/c2ccc(Cl)cc2)CCCc2ccccc21", "cat": "false"}
{"compound": "O=C(CNc1ccc(Cl)cc1)Nn1c(-c2ccccc2)nc2ccccc2c1=O", "cat": "false"}
{"compound": "COC[C@H](Cc1ccccc1)/N=C/c1ccccc1", "cat": "false"}
{"compound": "CC(=O)OC1COC(Nn2c(=O)[nH]c3ccccc3c2=O)C(OC(C)=O)C1OC(C)=O (centres undefined)", "cat": "false"}
{"compound": "CCCCc1ccc(-n2sc3ncc(C)cc3c2=O)cc1", "cat": "false"}
{"compound": "CC[C@@]1(OC(=O)C(N)CCCCN)C(=O)OCc2c1cc1n(c2=O)Cc2cc3ccccc3nc2-1 (some centres undefined)", "cat": "true"}
{"compound": "O=C(CCCN1CCC2(CC1)CC(=O)N(N1CCCCCC1)C2=O)c1ccccc1", "cat": "false"}
{"compound": "CC(C)N(c1cc2c(cc1F)c(=O)c(C(=O)O)cn2-c1ccc(N2CCN(C)CC2)cn1)C(C)C", "cat": "false"}
{"compound": "N/C(=C\\c1ccc(/C=C(\\NC(=O)c2ccccc2)c2nc3c([nH]2)C(=O)c2ccccc2C3=O)cc1)c1nc2c([nH]1)C(=O)c1ccccc1C2=O", "cat": "false"}
{"compound": "Cc1oc2c(C)c3oc(=O)cc(C)c3cc2c1CNC(=O)[C@@H]1OCCOCCOCCOCCOCCOC1C(=O)O (some centres undefined)", "cat": "false"}
{"compound": "C[C@]12CC(c3ccccc3O1)C(C#N)C(=O)N2 (some centres undefined)", "cat": "false"}
{"compound": "COc1ccc(/C=C2\\CCC(C)C3=C2N=c2s/c(=C/c4cccc(Br)c4)c(=O)n2C3c2ccc(OC)c(OC)c2)cc1OC (centres undefined)", "cat": "false"}
{"compound": "CC(/C=C/C(=O)NO)=C\\C(C)C(=O)c1ccc(N(C)C)cc1 (centres undefined)", "cat": "true"}
{"compound": "COc1nc2c(c(=O)n1C)N[C@@H]1[C@@H](O)[C@H](O)CO[C@@H]1N2", "cat": "false"}
{"compound": "COc1cccc(/C=C2\\CCCCCC2=O)c1", "cat": "false"}
{"compound": "CC(=O)N1CCOC12N=NC(C)(C)O2 (centres undefined)", "cat": "false"}
{"compound": "CC(C)(C)OC(=O)C(C#N)C(=O)c1ccc(C(=O)O)[nH]1 (centres undefined)", "cat": "false"}
{"compound": "CC1=NN(c2nc(N)nc(CF)n2)C(C)(C)C1", "cat": "false"}
{"compound": "O=C(O)c1ccc(Nc2nc3ccc(C(F)(F)F)cc3nc2-c2ccccc2)cc1", "cat": "false"}
{"compound": "CSc1nc(NC2OCC(O)C(O)C2O)c(N)c(=O)[nH]1 (centres undefined)", "cat": "false"}
{"compound": "CC(C)(C)CN1[C@@H]2CCCC[C@H]2N(CC(C)(C)C)P1(=O)Cc1ccccc1", "cat": "false"}
{"compound": "O=c1[nH]nc(-c2ccccc2)n1/N=C/c1c[nH]c2ccccc12", "cat": "false"}
{"compound": "OC1CC2CCC(C1)N2CCCN1c2ccccc2Sc2ccc(Cl)cc21 (centres undefined)", "cat": "false"}
{"compound": "C=C1C(=O)C23CC1CCC2C12CO[C@@]3(O)[C@@H](O)C1C(C)(C)C=CC2=O (some centres undefined)", "cat": "true"}
{"compound": "COc1cc(/C=N/c2ccccn2)cc(OC)c1OC", "cat": "false"}
{"compound": "COC(=O)[C@@H](NC(=O)[C@@H](CC(C)C)N(C)C(=O)[C@@H]1CCCN1C(=O)C(C)O)C(C)OC(=O)CCc1ccc(OC)cc1 (some centres undefined) (H-[ξLac]P[dNMeL][Thr(3ξ)](Propanoyl(3-(4-MeO-Ph)))-OMe)", "cat": "false"}
{"compound": "Cc1c(-c2ccccc2)c(C#N)c2nnn(C3CCCCC3)c(=O)n12", "cat": "false"}
{"compound": "CC1(C)[C@@H]2C[C@H]1c1cnc(-c3ccccn3)cc1[C@H]2C(O)[C@@H]1c2cc(-c3ccccn3)ncc2[C@H]2C[C@@H]1C2(C)C (some centres undefined)", "cat": "true"}
{"compound": "Cc1ccc2nc3c(C(=O)NCCN(C)C)cccc3nc2c1", "cat": "false"}
{"compound": "N/C(CCSCCSCC/C(N)=N\\O)=N\\O", "cat": "false"}
{"compound": "COc1cccc(N2C(=O)CSC2c2cc(OC)c(OC)c(OC)c2)c1 (centres undefined)", "cat": "false"}
{"compound": "c1cc(NC2=NCCO2)c2c(c1)OCO2", "cat": "false"}
{"compound": "O=C([O-])C1([n+]2c(-c3ccccc3)cc(-c3ccccc3)cc2-c2ccccc2)CC1", "cat": "false"}
{"compound": "CSc1ccc2c(cc1=O)[C@@H](NC(=O)c1cc(O)c(O)c(O)c1)CCc1cc(O)c(O)c(O)c1-2", "cat": "false"}
{"compound": "CCOC(=O)c1nc2ccccc2nc1Oc1ccc(C#N)cc1", "cat": "false"}
{"compound": "CCC1(OC(C)=O)C(=O)OCc2c1cc1n(c2=O)Cc2cc3ccccc3nc2-1 (centres undefined)", "cat": "true"}

====

- Tested on: OVCAR-3
- assay-comment: NCI tumour cell line growth inhibition, 48 h
Activity calls are given as the source filed them. No stated cut-off is given here; in the data, active = GI50 up to about 1.1 µM and inactive = higher.
experimental-readout: GI50

{"molecule": "COc1cc2c(c3c1c(=O)c1ccccc1n3C)C=C([N+](=O)[O-])C(C)(C)O2", "observed": "> 100 µM (inactive)"}
{"molecule": "CN(C)C(=O)Oc1ccc(C(=S)Nc2ccccc2)cc1", "observed": "86.5 µM (inactive)"}
{"molecule": "O=C(/C=C/c1cc2ccccc2o1)N1CCN(c2ccccn2)CC1", "observed": "62.7 µM (inactive)"}
{"molecule": "NCC(=O)Nc1ccc(Cl)cc1C(=O)c1ccc[nH]1", "observed": "40.9 µM (inactive)"}
{"molecule": "COC1OC(C)C2OC(C)(C)OC2C1OC(C)=O (stereo unspecified)", "observed": "> 100 µM (inactive)"}
{"molecule": "CN(CCO)c1nc(=O)c2c(n1C1OC(CO)C(O)C(O)C1O)CCCC2 (stereo unspecified)", "observed": "> 100 µM (inactive)"}
{"molecule": "COc1ccc(C(c2ccc(C(C)C)cc(OC)c2=O)c2ccc(C(C)C)cc(OC)c2=O)cc1", "observed": "13.2 µM (inactive)"}
{"molecule": "O=C1C(Cl)=C(NCCF)C(=O)c2ncccc21", "observed": "2.03 µM (inactive)"}
{"molecule": "COc1ccccc1NC(=O)C(=O)C1C(=O)Nc2ccccc2[S+]1[O-] (stereo unspecified)", "observed": "> 100 µM (inactive)"}
{"molecule": "C=CCC1(CN(C)C)CC/C(=C\\c2ccc(Cl)cc2)C1=O (stereo unspecified)", "observed": "36.1 µM (inactive)"}
{"molecule": "CCOc1ccc(/C=C2/C(=O)N/C(=N\\C(C)=O)N2C)cc1", "observed": "> 100 µM (inactive)"}

====

- Test system: SF-268
- assay-comment: NCI tumour cell line growth inhibition, 48 h
Active and inactive are the calls of the source. Cut-off read from the data, not from the text of the source: active = GI50 up to about 1.1 µM and inactive = higher.
Labels: Y (active), N (inactive)

{"compound": "O=C1Nc2ccc(Br)cc2/C1=N/NC(=S)Nc1ccc([N+](=O)[O-])cc1", "cat": "N"}
{"compound": "O=C(CNc1cccc([N+](=O)[O-])c1)Nn1c(-c2ccccc2)nc2ccccc2c1=O", "cat": "N"}
{"compound": "CCC(=O)Nc1cccc(NC(=O)c2c(Cl)c(Cl)c(Cl)c(Cl)c2-c2nc3ccccc3[nH]2)c1", "cat": "N"}
{"compound": "CCc1nc(N)nc(N)c1-c1ccc(Cl)c(N=[N+]=[N-])c1", "cat": "N"}
{"compound": "COC(=O)CC[C@@H](NC(=O)C(C)NC(=O)COC1C(O)C(COC(=O)CCCCCCCCCCNC(=O)c2ccc([N+](=O)[O-])c3[nH]c4cc(Br)ccc4c(=O)c23)OC(OCc2ccccc2)C1NC(C)=O)C(N)=O (stereo not given in full)", "cat": "N"}
{"compound": "O=C(Cc1ccccc1)NCCCN(CCCCN(CCCNC(=O)Cc1ccccc1)C(=O)OCc1ccccc1)C(=O)OCc1ccccc1", "cat": "N"}
{"compound": "O=[N+]([O-])c1ccc(S(=O)(=O)Cc2ccccc2)c([N+](=O)[O-])c1", "cat": "N"}
{"compound": "O=C1C(Cl)=C(NCCF)C(=O)c2ncccc21", "cat": "N"}
{"compound": "N=C(N)C1=C(O)NC(=O)N(C2CCCCC2)C1", "cat": "N"}
{"compound": "COc1nc2c(c(=O)n1C)N[C@@H]1[C@@H](O)[C@H](O)CO[C@@H]1N2", "cat": "N"}
{"compound": "CN1C(=O)[C@@]2(C=CC3(CC2)OCCO3)c2ccccc21", "cat": "N"}
{"compound": "CCOC(=O)C(NC(=O)CC)(Nc1ccccc1OC)C(F)(F)F (stereo not given)", "cat": "N"}
{"compound": "COc1ccc(\\N=C/C=C/C(=C/COC(C)=O)OC(C)=O)cc1", "cat": "N"}
{"compound": "CC(/C=C/C(=O)NO)=C\\C(C)C(=O)c1ccc(N(C)C)cc1 (stereo not given)", "cat": "Y"}
{"compound": "COC(=O)c1c(O)c2c(c3c1OC(C)(C)CC3)OC(C)(C)CC2", "cat": "N"}
{"compound": "CNC(=O)N(CCCC(NC(C)=O)C(=O)NCc1ccccc1)Cc1ccccc1 (stereo not given)", "cat": "N"}
{"compound": "O=S(=O)(N/N=C\\c1c2ccccc2[n+]([O-])c2ccccc12)c1ccc(Cl)cc1", "cat": "N"}
{"compound": "COc1ccc(-c2oc3c(CC(=O)O)cccc3c(=O)c2OC)cc1", "cat": "N"}
{"compound": "CC(C)(CN)CN", "cat": "N"}
{"compound": "O=[N+]([O-])c1ccc(C[S+]([O-])Cc2ccccc2)cc1 (stereo not given)", "cat": "N"}

All figures here come from ChEMBL document CHEMBL1201862.
